molecular target: Cytochrome P450 2D6 (Homo sapiens) (UniProt P10635); assay: Cytochrome P450 family 2 subfamily D member 6 (CYP2D6) small molecule antagonists: luciferase biochemical (cell-free) qHTS assay (AID 1645840); details: P450-Glo CYP2D6 enzyme, luciferin luminescence, 1 h; series mostly up to 57.4 µM; note: nearly all actives have a fitted effect of over 55% in size
Sequence (P10635 whole entry, looked up): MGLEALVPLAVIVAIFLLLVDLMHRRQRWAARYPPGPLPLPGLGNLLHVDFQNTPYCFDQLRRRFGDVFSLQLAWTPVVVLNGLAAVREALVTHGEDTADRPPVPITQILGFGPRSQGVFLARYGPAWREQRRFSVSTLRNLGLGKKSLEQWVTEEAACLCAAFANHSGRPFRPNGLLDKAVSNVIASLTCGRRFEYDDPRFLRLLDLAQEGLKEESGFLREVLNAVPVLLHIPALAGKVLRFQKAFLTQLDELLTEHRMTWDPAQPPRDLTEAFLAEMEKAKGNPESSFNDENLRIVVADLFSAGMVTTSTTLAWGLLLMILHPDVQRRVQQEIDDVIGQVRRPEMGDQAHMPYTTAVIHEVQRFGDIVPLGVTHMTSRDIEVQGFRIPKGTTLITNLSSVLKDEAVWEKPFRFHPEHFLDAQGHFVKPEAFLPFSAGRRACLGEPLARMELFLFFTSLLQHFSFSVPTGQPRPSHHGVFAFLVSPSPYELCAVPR
Inconclusive results are not listed. Activity calls are given as the source filed them. Calls come from the whole dose curve; as a rule, active = well fitted inhibition curve with a large enough effect in the repeat runs; inconclusive = weak or mixed curves; inactive = flat fitted curve, though single readings scatter.
Hi! Could you answer with just one of these? true (1) for active, false (0) for inactive

These recorded examples may help you get a feel for the data.
CCCC(=O)O :: false (0)
CC(C)(C)c1ccc(CN2CCN(C(c3ccccc3)c3ccc(Cl)cc3)CC2)cc1 (stereo not drawn) :: false (0)
CCCc1ccc(C(=O)O)cc1 :: false (0)
O=C(OC1C[C@@H]2CC3C[C@H](C1)N2CC3=O)c1c[nH]c2ccccc12 (stereo partly drawn) :: true (1)
CN1C(=O)OC(C)(C)C1=O :: false (0)

IN: In this assay, the call recorded for CCOC(=O)C1=C(COCCN)NC(C)=C(C(=O)OC)C1c1ccccc1Cl (stereo not drawn) was what?
OUT: true (1)

IN: What about this compound? Oc1cc(O)cc(O)c1
OUT: false (0)

---

tested on: CP203; experiment: qHTS profiling for inhibitors of Plasmodium falciparum proliferation (AID 504749); note: nearly all actives have a fitted effect of over 60% in size; settings: P. falciparum in erythrocytes, SYBR Green DNA, 72 h; series mostly up to 28.7 µM
Inconclusive results are not listed. Activity calls are given as the source filed them. The call rests on the fitted dose curve; in most records, active means well fitted inhibition curve with a large enough effect; inconclusive means small, poorly fitted or top-dose-only effect; inactive means flat fitted curve, though single readings scatter.
Hello, when you answer, please use one of the following outcomes: active, inactive

Use the examples below as a reference point.
C=C(C)C1CC=C(C)CC1 (configuration not stated) :: inactive
COc1ccc(C(=O)CCC(=O)O)c2ccccc12 :: inactive
N=C(N)n1cccn1 :: inactive
CCCCO :: inactive
CN1C(=O)OC(C)(C)C1=O :: inactive
O=C1c2ccccc2C(=O)C1c1ccc(Cl)cc1 :: inactive
O=C(O)[C@H]1C(=CCO)O[C@H]2CC(=O)N12 :: inactive
C=CCCCCCCCCC(=O)OC :: inactive
O=P(O)(O)OC[C@H]1O[C@](O)(COP(=O)(O)O)[C@@H](O)[C@@H]1O :: inactive
CN(C)C=Nc1c(I)cc(I)c(CCC(=O)O)c1I :: inactive

IN: Any idea what this test logged for Cc1nc(NS(=O)(=O)c2ccc(N)cc2)nc(C)c1Br ?
OUT: inactive

IN: // next record O=C(O)Cc1nn(Cc2ccc(Br)cc2F)c(=O)c2ccccc12
OUT: inactive

IN: Same for NCC[C@H](O)C(=O)N[C@@H]1C[C@H](N)[C@@H](O[C@H]2O[C@H](CN)[C@@H](O)[C@H](O)[C@H]2O)[C@H](O)[C@H]1O[C@H]1O[C@H](CO)[C@@H](O)[C@H](N)[C@H]1O
OUT: inactive

IN: Please give the result for O=C(O[C@H]1CN2CCC1CC2)N1CCc2ccccc2[C@@H]1c1ccccc1 too.
OUT: inactive

IN: Follow-up entry: CCC(=O)c1ccc2c(c1)N(CCCN1CCN(CCO)CC1)c1ccccc1S2
OUT: active

IN: Now consider O=C(OCc1ccccc1)c1ccc(O)cc1 .
OUT: inactive

IN: Another molecule to look at: Cc1ccc(S(=O)(=O)O)cc1C
OUT: inactive

---

tested on: astro; test: Drug repurposing screens with cells derived from glioblastoma tumor samples (AID 1345199); settings: viability, ATP luminescence, 48 h; series mostly up to 45.9 µM; note: nearly all actives have a fitted effect of over 40% in size
Results filed as inconclusive are left out. Calls of active or inactive are those of the source. Calls come from the whole dose curve; as a rule, active = well fitted inhibition curve with a large enough effect; inconclusive = small, poorly fitted or top-dose-only effect; inactive = flat fitted curve, though single readings scatter.
MEASURED_ENDPOINT: outcome

COc1c(O[C@@H]2O[C@H](CO)[C@@H](O)[C@H](O)[C@H]2O)cc2c(c1OC)-c1ccc(SC)c(=O)cc1[C@@H](NC(C)=O)CC2 :: inactive
O=C1c2ccccc2C(=O)C1c1ccc(F)cc1 :: inactive
NC(=O)CC[C@@H]1NC(=O)[C@H](Cc2ccccc2)NC(=O)[C@H](Cc2ccc(O)cc2)NC(=O)[C@@H](N)CSSC[C@@H](C(=O)N2CCC[C@H]2C(=O)N[C@@H](CCCN=C(N)N)C(=O)NCC(N)=O)NC(=O)[C@H](CC(N)=O)NC1=O :: inactive

---

test system: CP286; assay: qHTS profiling for inhibitors of Plasmodium falciparum proliferation (AID 504749); note: nearly all actives have a fitted effect of over 60% in size; settings: P. falciparum in erythrocytes, SYBR Green DNA, 72 h; series mostly up to 28.7 µM
Results filed as inconclusive are left out. Activity calls are given as the source filed them. Calls come from the whole dose curve; as a rule, active = well fitted inhibition curve with a large enough effect; inconclusive = small, poorly fitted or top-dose-only effect; inactive = flat fitted curve, though single readings scatter.
Write down the outcome that applies. Available outcomes: active, inactive

Answered examples (5):
O=C1c2ccccc2C(=O)c2c1ccc(O)c2O :: inactive
CCCCCCCCCC(=O)NO :: inactive
O=C(O)c1ccc(NC(=O)[C@H](Cc2ccc(O)cc2)NC(=O)c2ccccc2)cc1 :: inactive
CCCC(=O)O :: inactive
CC(=O)Nc1ccc(OC(C)=O)cc1 :: inactive

IN: Identify the outcome logged in this assay for the molecule shown: CN(C)CCCSc1ccccc1NC(=O)/C=C/c1ccccc1
OUT: inactive

IN: Again, but for C[C@H](CCCC(C)(C)O)[C@H]1CC[C@H]2[C@@H]3CC=C4C[C@@H](O)CC[C@]4(C)[C@H]3CC[C@]12C
OUT: inactive

IN: And the next one, CCC(C)[C@@H](N)C(=O)O (stereo not given in full) ?
OUT: inactive

IN: Next: OCC1(CO)COC(C(Cl)(Cl)Cl)OC1
OUT: inactive

IN: Next: CCCCCCCCCCCC(=O)OCC(O)CO (stereo not given)
OUT: inactive

IN: Thanks! And NC(=S)N=Nc1ccc(NN=C(N)N)cc1 ?
OUT: active

IN: Next up: Cc1cc2nc3c(=O)[nH]c(=O)nc-3n(C[C@H](O)[C@H](O)[C@H](O)COP(=O)(O)OP(=O)(O)OC[C@H]3O[C@@H](n4cnc5c(N)ncnc54)[C@H](O)[C@@H]3O)c2cc1C
OUT: inactive

IN: Same for CC1C(=O)CC2C3(C)CCC2(C(C)C(=O)O)C(=O)C13 (stereo not given)
OUT: inactive

IN: Consider next the molecule Nc1nc(=O)n([C@@H]2CS[C@H](CO)O2)cc1F in the same way.
OUT: inactive

IN: Would you kindly repeat that for O=C(OC1C[C@@H]2CC3C[C@H](C1)N2CC3=O)c1c[nH]c2ccccc12 (stereo not given in full) ?
OUT: inactive

IN: Query FC(F)(F)C(F)(F)C(F)(F)C(F)(F)C(F)(F)C(F)(F)F next
OUT: inactive

IN: Moving on to Nc1ncnc2c1ncn2CCOCP(=O)(O)O
OUT: inactive

IN: Try this molecule next: CN1CCc2c(c3ccccc3n2Cc2ccccc2)C1
OUT: inactive

IN: Entry to check: O=P(O)(O)OC[C@H]1O[C@](O)(COP(=O)(O)O)[C@@H](O)[C@@H]1O
OUT: inactive

IN: Entry Cc1cccc(Nc2ncccc2C(=O)O)c1C please
OUT: inactive

---

System: W2
Assay: qHTS profiling for inhibitors of Plasmodium falciparum proliferation (AID 504749); note: nearly all actives have a fitted effect of over 60% in size
Details: P. falciparum in erythrocytes, SYBR Green DNA, 72 h; series mostly up to 28.7 µM
Protocol: NIH National Institute of Allergy and Infectious Diseases [NIAID] NIH Chemical Genomics Center [NCGC] […] Because mature erythrocytes lack DNA, only Plasmodium-derived DNA is detected. NCGC Assay Protocol Summary: The SYBR Green viability assay was adapted from a method described previously (Plouffe et al., 2008). […] The following morning, fluorescence intensity at 485(14) nm excitation and 535(25) nm emission wavelengths was measured on an EnVision (Perkin Elmer) plate reader. […]
Records with an inconclusive call do not appear. The source made the active and inactive calls. Calls follow the shape of the dose curve; as a rule, active = well fitted inhibition curve with a large enough effect; inconclusive = small, poorly fitted or top-dose-only effect; inactive = flat fitted curve, though single readings scatter.
# output must be one of label 1 (active), label 0 (inactive)

// below: answered compounds
O=C1N=C2SCCN2C(=O)C1Cc1ccc(Cl)cc1 (stereo not drawn) :: label 0
O.O.O.O.O.O.O.O=S(=O)([O-])[O-].[Co+2] :: label 1
Nc1nc(=O)n([C@@H]2CS[C@H](CO)O2)cc1F :: label 0

Note: attention shifts to another entry.
IN: // param item: C=CCOc1ccc(CC(=O)O)cc1Cl ; yields the recorded call
OUT: label 0

---

test system: CP268; test: qHTS profiling for inhibitors of Plasmodium falciparum proliferation (AID 504749); note: nearly all actives have a fitted effect of over 60% in size; conditions: P. falciparum in erythrocytes, SYBR Green DNA, 72 h; series mostly up to 28.7 µM
Inconclusive results are not listed. Active and inactive are the calls of the source. Calls come from the whole dose curve; as a rule, active = well fitted inhibition curve with a large enough effect; inconclusive = small, poorly fitted or top-dose-only effect; inactive = flat fitted curve, though single readings scatter.
Give one outcome, nothing more. List: true (1) (active), false (0) (inactive)

Please review the entries below; each comes with its answer.
[O]=[Bi][O][Bi]=[O] :: false (0)
CN=C1C=CC(=C(c2ccc(N(C)C)cc2)c2ccc(N(C)C)cc2)C=C1 :: true (1)

IN: Look up the recorded call for CC1CCCCN1CCCOC(=O)c1ccccc1 (configuration not stated) in this test.
OUT: false (0)

IN: Then Cc1ncc(C[n+]2csc(CCOP(=O)(O)O)c2C)c(N)n1 ?
OUT: false (0)

IN: Again, but for c1ccc(-n2cnnn2)cc1
OUT: false (0)

IN: Now this one: c1ccc2ccccc2c1
OUT: false (0)

IN: And O=C(O)CCC/C=C\C[C@@H]1[C@@H](/C=C/[C@@H](O)COc2cccc(Cl)c2)[C@H](O)C[C@@H]1O ?
OUT: false (0)

Sourced from PubChem BioAssay (NCATS)
